System: HOSE1C
procedure_summary: drug sensitivity score (DSS) from 5-point dose-response viability curve (DSS (area-under-curve based score)); higher = more sensitive (stronger growth inhibition or killing); extreme values may be limits of the assay
condition_notes: exposure time: 72 h; concentration range: 5 concentrations over 10,000-fold range
Listing of recorded drug sensitivity score by entry.

Here are 3 molecules together with their reported answers.
C[C@@H](Nc1cc(F)cc(F)c1)c1cc(C(=O)N(C)C)cc2c(=O)cc(N3CCOCC3)oc12 [AZD-8186]; 0.1
CCOc1cc2ncc(C#N)c(Nc3ccc(OCc4ccccn4)c(Cl)c3)c2cc1NC(=O)/C=C/CN(C)C [Neratinib]; 0
FC(F)(F)c1ccc(/C=C/c2nc(COc3ccc(CCCCn4ccnn4)cc3)co2)cc1 [Mubritinib]; 0

Next:
// CCOC(=O)C1=CCCC[C@H]1S(=O)(=O)Nc1ccc(F)cc1Cl [Resatorvid] : drug sensitivity score value = 0

* * *

Test system: CAOV3
procedure_summary: drug sensitivity score (DSS) from 5-point dose-response viability curve (DSS (area-under-curve based score)); higher = more sensitive (stronger growth inhibition or killing); extreme values may be limits of the assay
condition_notes: exposure time: 72 h; concentration range: 5 concentrations over 10,000-fold range
Returns one of Criterion met or Criterion not met; Criterion met when drug sensitivity score is >= 2.

Previously resolved entries follow.
COc1cccc(-c2ccc(NC(=O)C3=C(C(=O)O)CCC3)c(F)c2)c1 [Vidofludimus]; Criterion not met
O=C(Nc1cccc(Nc2ncc(Br)c(NCCc3cnc[nH]3)n2)c1)N1CCCC1 [BX-912]; Criterion met
CC#CC(=O)N1CC[C@@H](n2c(=O)n(-c3ccc(Oc4ccccc4)cc3)c3c(N)ncnc32)C1 [Tirabrutinib]; Criterion not met

Evaluate O=C(Nc1cc(Oc2cc(F)c(NC(=O)C3(C(=O)Nc4ccc(F)cc4)CC3)cc2F)ccn1)C1CC1 [Altiratinib] : drug sensitivity score at minimum 2?
Criterion met

Evaluate C=CCN(/C=C1/C(=O)O[C@H](COC)[C@@]2(C)C1=C(O)C(=O)C1=C2[C@H](OC(C)=O)C[C@]2(C)C(=O)CC[C@@H]12)CC=C [Sonolisib] : drug sensitivity score at minimum 2?
Criterion not met

Evaluate Nc1ncn([C@@H]2O[C@H](CO)[C@@H](O)[C@H]2O)c(=O)n1 [Azacitidine] : drug sensitivity score at minimum 2?
Criterion not met

Evaluate CCCc1cc(C)[nH]c(=O)c1CNC(=O)c1cc(-c2ccnc(N3CCN(C)CC3)c2)cc2c1cnn2C(C)C [GSK343] : drug sensitivity score at minimum 2?
Criterion not met

Evaluate Nc1cccc2c1C(=O)N(C1CCC(=O)NC1=O)C2=O (stereo unspecified) [Pomalidomide] : drug sensitivity score at minimum 2?
Criterion not met

Evaluate Cc1cc(-c2nc(-c3ccc(OC(F)(F)F)cc3)no2)nn1Cc1ccnc(N2CCN(C3CC3)CC2)c1 [BAY 87-2243] : drug sensitivity score at minimum 2?
Criterion met

Evaluate CC(C)(C)NC(=O)[C@H]1CC[C@H]2[C@@H]3CC[C@H]4NC(=O)C=C[C@]4(C)[C@H]3CC[C@]12C [Finasteride] : drug sensitivity score at minimum 2?
Criterion not met

Evaluate O=C(Nc1cc(Cl)cc2c1[nH]c1cnccc12)c1cccnc1 [PS-1145] : drug sensitivity score at minimum 2?
Criterion not met

Evaluate C/C(=C\c1csc(C)n1)[C@@H]1C[C@@H]2O[C@]2(C)CCC[C@H](C)[C@H](O)[C@@H](C)C(=O)C(C)(C)[C@@H](O)CC(=O)N1 [Ixabepilone] : drug sensitivity score at minimum 2?
Criterion met
